- ASSAYED_TARGET: rat VMAT2-His (Rattus norvegicus, UniProt Q01827)
- Construct: The ORF of rat VMAT2 was subcloned into a pFastBac vector; His; made in house; host or cells: Sf9 insect cells (baculovirus)
- Sequence (Q01827 whole entry): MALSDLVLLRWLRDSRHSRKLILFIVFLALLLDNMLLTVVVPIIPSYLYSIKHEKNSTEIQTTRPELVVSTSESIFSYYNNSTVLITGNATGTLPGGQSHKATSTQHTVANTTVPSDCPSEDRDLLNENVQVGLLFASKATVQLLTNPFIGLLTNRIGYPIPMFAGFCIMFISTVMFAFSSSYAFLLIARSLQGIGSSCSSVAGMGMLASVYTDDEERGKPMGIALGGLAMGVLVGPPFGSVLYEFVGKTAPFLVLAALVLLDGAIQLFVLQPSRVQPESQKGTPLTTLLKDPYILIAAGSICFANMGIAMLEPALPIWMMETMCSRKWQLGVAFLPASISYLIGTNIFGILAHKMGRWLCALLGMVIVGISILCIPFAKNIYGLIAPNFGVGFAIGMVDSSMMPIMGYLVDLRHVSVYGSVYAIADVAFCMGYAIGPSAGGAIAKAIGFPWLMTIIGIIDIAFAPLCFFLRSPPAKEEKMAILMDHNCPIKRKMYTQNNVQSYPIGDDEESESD
- PROCEDURE_DETAILS: Differential scanning fluorimetry (DSF) with CPM dye: change of melting temperature of purified VMAT2
- Type: binding
- APPLIED_CONDITIONS: Table S2 dose response, compound 90 µM; read-out: ΔTm
Where a name gives a salt, the structure may show the parent alone.
# class assignment by measured ΔTm at 90 µM: low range (below -0.5 °C), mid range (-0.5 °C to below 0.9 °C), high range (0.9 °C or more)

| MOLECULE | ASSIGNED_CLASS |
| --- | --- |
| CCCCC(CC)CN1CN(CC(CC)CCCC)CC(C)(N)C1 (stereo not drawn) | mid range |
| CC(C)COCC(CN(Cc1ccccc1)c1ccccc1)N1CCCC1 (stereo not drawn) [Bepridil hydrochloride] | low range |
| C[C@H](CCC(=O)O)[C@H]1CC[C@H]2[C@@H]3[C@H](O)C[C@@H]4C[C@H](O)CC[C@]4(C)[C@H]3CC[C@]12C | mid range |
| COc1cc2c(cc1OC)C1CC(=O)C(CC(C)C)CN1CC2 (stereo not drawn) | high range |
| O=C1Cc2cc(CCN3CCN(c4nsc5ccccc45)CC3)c(Cl)cc2N1 [Ziprasidone, Ziprasidone Hydrochloride] | high range |
| CC(C)n1c(/C=C/C(O)CC(O)CC(=O)O)c(-c2ccc(F)cc2)c2ccccc21 (stereo not drawn) [Fluvastatin, Fluvastatin sodium salt] | high range |
| COc1ccc(CN2CCN(C(c3ccc(F)cc3)c3ccc(F)cc3)CC2)c(OC)c1OC [Lomerizine, Lomerizine hydrochloride] | low range |
| CC(C)(C)NC(=O)[C@@H]1C[C@@H]2CCCC[C@@H]2CN1C[C@@H](O)[C@H](Cc1ccccc1)NC(=O)[C@H](CC(N)=O)NC(=O)c1ccc2ccccc2n1 [Saquinavir mesylate] | low range |
| CCCC(=O)Nc1ccc(OCC(O)CNC(C)C)c(C(C)=O)c1 (stereo not drawn) [Acebutolol, Acebutolol hydrochloride] | mid range |
| Cc1cccc(C)c1NC(=O)CN1CCN(CCCC(c2ccc(F)cc2)c2ccc(F)cc2)CC1 | mid range |
| C#CCN(C)[C@H](C)Cc1ccccc1 [Selegiline hydrochloride] | mid range |
| CCCNCC(O)COc1ccccc1C(=O)CCc1ccccc1 (stereo not drawn) [Propafenone, Propafenone hydrochloride] | high range |
| CC(CCc1ccccc1)NCC(O)c1ccc(O)c(C(N)=O)c1 (stereo not drawn) [Labetalol hydrochloride] | mid range |
| CN[C@@H]1C[C@@H](c2ccc(Cl)c(Cl)c2)c2ccccc21 [Indatraline hydrochloride] | low range |

====

The molecules listed here are annotated with their pIC50.
- ASSAYED_TARGET: rat VMAT2 (Rattus norvegicus, UniProt Q01827)
- Sequence (Q01827 whole entry): as above
- PROCEDURE_DETAILS: FFN206 uptake assay in transfected Hek293 cells
pIC50: −log10 of the molar value. Counter-ions that a name gives are not always drawn.

| MOLECULE | ASSAYED_TARGET | LT_GT_EQ | pIC50 |
| --- | --- | --- | --- |
| C=CCOc1ccccc1OCC(O)CNC(C)C (stereo not shown) [Oxprenolol, Oxprenolol hydrochloride] | rat VMAT2 (Rattus norvegicus, UniProt Q01827) | = | 5.18 |
| OCc1cc(C(O)CNCCCCCCOCCCCc2ccccc2)ccc1O (stereo not shown) | rat VMAT2 (Rattus norvegicus, UniProt Q01827) | = | 7.28 |
| CC(C)NCC(O)COc1ccc(CCOCC2CC2)cc1 (stereo not shown) [Betaxolol, Betaxolol hydrochloride] | rat VMAT2 (Rattus norvegicus, UniProt Q01827) | = | 5.16 |
| OCc1cc([C@@H](O)CNCCCCCCOCCOCc2c(Cl)cccc2Cl)ccc1O | rat VMAT2 (Rattus norvegicus, UniProt Q01827) | = | 7.33 |
| COc1ccc2[nH]c([S+]([O-])Cc3ncc(C)c(OC)c3C)nc2n1 (stereo not shown) | rat VMAT2 (Rattus norvegicus, UniProt Q01827) | < | 5.00 |
| COc1ccc(CC(C)(C)NC[C@H](O)c2cc(O)cc3c2OCC(=O)N3)cc1 | rat VMAT2 (Rattus norvegicus, UniProt Q01827) | = | 5.32 |
| CCc1cc2c(cc1CC)CC(NC[C@H](O)c1ccc(O)c3[nH]c(=O)ccc13)C2 | rat VMAT2 (Rattus norvegicus, UniProt Q01827) | = | 6.43 |

Recorded values, source paper PMC9684503.
